target: T1, extracellular domain (ECD) of human CD47 (19aa-139aa) with C-terminal 6xHis tag (human, UniProt Q08722 19-139); assay: ELISA, coated recombinant CD47; EC50 as grade, legend the 6th table, row 26
T1 construct: also called recombinant CD47; recombinant human CD47
T1 sequence (Q08722 other isoform, or with tags, fused parts or gaps limits assumed): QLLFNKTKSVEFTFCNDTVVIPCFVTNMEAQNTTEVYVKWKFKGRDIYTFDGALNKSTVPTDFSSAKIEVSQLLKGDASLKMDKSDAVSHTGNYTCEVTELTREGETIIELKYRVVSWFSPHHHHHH
pEC50: −log10 of the molar value.
Metric Name: pEC50

pEC50 in this record for R.20H1 (antibody, human IgG1, kappa, V domains shown, Chimeric: rabbit variable domains, human IgG1 and human kappa constant regions) VH: QEQLVESGGGLVKPGASLTLTCKASGFSFSSGYYMCWVRQAPGKGLEWIGCIYVRSDSTYYASWAKGRFTISKASSTTVTLQMTSLTAADTATYFCARGVTGDSYRFNFWGPGTLVTVSS VL: DVVMTQTPASVEAAVGGTVTIKCQASQSISNELSWYQQKSGQPPKLLIYRASTLESGVPSRFKGSGSGTEFTLTISDLESADAATYYCQSTYYGTSYGNAFGGGTEVVVKR : 9.30 to 10.00
